Target: Savinase (Lederbergia lenta, UniProt P29600)
Sequence (P29600 whole entry): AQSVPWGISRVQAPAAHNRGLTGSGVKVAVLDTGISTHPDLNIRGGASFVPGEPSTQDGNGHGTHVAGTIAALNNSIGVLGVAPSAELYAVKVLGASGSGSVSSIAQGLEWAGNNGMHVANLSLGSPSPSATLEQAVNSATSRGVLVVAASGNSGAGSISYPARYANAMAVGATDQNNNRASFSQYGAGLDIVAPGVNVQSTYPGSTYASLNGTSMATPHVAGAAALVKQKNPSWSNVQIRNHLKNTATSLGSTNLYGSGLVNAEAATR
Parameter measured: Ki

compound="Cc1csc(B(O)O)c1 [4-Methylthiophene-2-boronic acid]" assayed_system="Savinase (Lederbergia lenta, UniProt P29600)" reading="3 mM"
compound="OB(O)c1cccs1 [Thiophene-2-boronic acid]" assayed_system="Savinase (Lederbergia lenta, UniProt P29600)" reading="2 mM"
compound="OB(O)c1ccoc1 [Furan-3-boronic acid]" assayed_system="Savinase (Lederbergia lenta, UniProt P29600)" reading="7 mM"
compound="OB(O)c1cccc2c1oc1ccccc12 [Dibenzofuran-4-boronic acid]" assayed_system="Savinase (Lederbergia lenta, UniProt P29600)" reading="1.1 mM"
compound="CCc1ccc(B(O)O)o1 [5-Ethylfuran-2-boronic acid]" assayed_system="Savinase (Lederbergia lenta, UniProt P29600)" reading="3 mM"
compound="OB(O)c1cccc2oc3ccccc3c12 [Dibenzofuran-1-boronic acid]" assayed_system="Savinase (Lederbergia lenta, UniProt P29600)" reading="1.5 mM"
compound="COc1ccc(B(O)O)o1 [5-Methoxyfuran-2-boronic acid]" assayed_system="Savinase (Lederbergia lenta, UniProt P29600)" reading="3 mM"
